assay: Acute toxicity test (Test 7); details: mouse, in vivo; oral administration, mortality after seven days; read-out: Acute toxicity: dose up to which no toxicity was shown

{"compound": "CN1C(=S)SC(c2ccccc2)N(C)C1c1ccccc1 (stereo not shown) [Compound of the formula I]", "NOAEL at 168 h": "≥ 8000 mg/kg"}

---

test: Acute toxicity test (Test 7); settings: mouse, in vivo, ip; abdominal (i.p.) administration, mortality after seven days; read-out: Acute toxicity: dose up to which no toxicity was shown

{"compound": "CN1C(=S)SC(c2ccccc2)N(C)C1c1ccccc1 (stereo not shown)", "NOAEL at 168 h": "≥ 4000 mg/kg"}
